Test system: vertebral blood flow
experimentNotes: Activity of increasing cerebral blood flow (vertebral blood flow as index, anesthetized dogs, intravenous)
Type: in vivo
conditionSet: 20 minutes after administration; 1 mg/kg i.v. (right femoral vein); anesthetized mongrel dogs
Protocol: The activity of increasing cerebral blood flow was measured by using the amount of vertebral blood flow as an index. Mongrel dogs of either sex (body weight 11 to 18 kg; four per groups) were anesthetized with sodium pentobarbital (30 mg/kg, by intravenous injection), and the right vertebral artery was isolated from the surrounding tissues. […] The amount of blood flow was periodically measured [see Meth and Find Exptl Clin Pharmacol, 3 (6), 397 (1981)]. […]
endpointLabel: Increase (%) in vertebral blood flow (mean ± standard error)
Numbers only, in %.

COc1ccc(CN2CCN(C(c3ccccc3)c3ccc(F)cc3)CC2)c(OC)c1.O=C(O)/C=C/C(=O)O (stereo not shown)
11.3
C(=Cc1ccccc1)CN1CCN(C(c2ccccc2)c2ccccc2)CC1 [Cinnarizine, 1-Cinnamyl-4-benzhydrylpiperazine, reference compound]
0
COc1ccc(CN2CCN(C(c3ccc(F)cc3)c3ccc(F)cc3)CC2)c(OC)c1OC.Cl.Cl
65.1

For the next question, use this molecule.
Request the reported Increase (%) in vertebral blood flow (mean ± standard error) associated with COc1ccc(CN2CCN(C(c3ccccc3)c3ccc(F)cc3)CC2)c(OC)c1OC.O=C(O)/C=C/C(=O)O (stereo not shown) 16.4

The measured values listed here are drawn from patent US4663325A.
